test system: DU-145 prostate; test: NCI-60 one-dose screen, 48 h (100 = growth as untreated, 0 = no growth, -100 = all killed); settings: 10 µM unless noted
Compounds without any hit were thinned out: in the full panel of roughly 83,000, 20% have a hit.
Endpoint: growth (%)
Report only the number, with the unit % understood.

Below, each entry is followed by its recorded growth result.
• Cc1nc(/N=C(N)/N=C(\N)c2cccc(Br)c2)sc1C = 57.9
• C#CCN(C)CCCOc1ccc(NC(=O)CCCCCCC(=O)NO)cc1Cl = 26.3

Prompt line: Consider the molecule `O=C1Nc2cc(Cl)ccc2/C1=C\c1ccc(OCc2ccccc2)cc1` . State its measured growth.
Response line: 101

Prompt line: Consider the molecule `N#Cc1nc(-c2ccccc2)oc1N1CCC(C2(C(F)(F)F)N=N2)CC1` . State its measured growth.
Response line: 103

Prompt line: Consider the molecule `Clc1ccc2c(N/N=C/c3c[nH]c4ccccc34)ccnc2c1` . State its measured growth.
Response line: -90.2

Prompt line: Consider the molecule CC[C@]12CC(C(=O)OC)=C3Nc4ccccc4[C@@]34CCN(C14)[C@@H]1c3cc4c(cc3O[C@@H]1[C@H]2O)NC1=C(C(=O)OC)C[C@@]2(CC)C3N(CC[C@@]143)C[C@H]1O[C@H]12 (stereo not given in full) . State its measured growth.
Response line: 41.9

Prompt line: Consider the molecule `Nc1ncc(-c2ccc3ncnc(NCc4ccccc4)c3c2)cn1` . State its measured growth.
Response line: 23.7

Prompt line: Consider the molecule `Cc1ccc(NC(=O)Nc2nc3ccc([N+](=O)[O-])cc3s2)cc1` . State its measured growth.
Response line: 17.9

Prompt line: Consider the molecule `N#C/C(=N\Nc1ccc(F)cc1)C(=O)Nc1cc(-c2ccccc2)nn1-c1ccccc1` . State its measured growth.
Response line: 22.9

Prompt line: Consider the molecule `O=C(Nc1ccc(Cl)c(C(F)(F)F)c1)Nc1ccc2oc(=O)ccc2c1` . State its measured growth.
Response line: 40.5

Prompt line: Consider the molecule `Cc1ccc(C(=O)CSc2nc3ccccc3c(=O)n2C)cc1` . State its measured growth.
Response line: 95.3

Prompt line: Consider the molecule `C#CCN(C)CCCOc1ccc(NCc2ccc(/C=C/C(=O)NO)cc2)cc1Cl` . State its measured growth.
Response line: 13.7

Prompt line: Consider the molecule `Cc1[nH]c(C(=O)Nc2ccc(C(=O)NCC3CCNCC3)cc2OC(C)C)c(Cl)c1Cl` . State its measured growth.
Response line: 80.2

Prompt line: Consider the molecule `Cc1ccc(C(=O)CSc2nnc(-c3ccc(-c4ccc(Cl)cc4)nc3C)o2)cc1` . State its measured growth.
Response line: 115

---

system: SN12C renal; assay: NCI-60 one-dose screen, 48 h; settings: 10 µM unless noted
Compounds without any hit were thinned out: in the full panel of roughly 83,000, 20% have a hit. Active and inactive are the calls of the source. Rule for the calls: active = growth percent below 10; inactive = the rest.
The categories you may choose from are active, inactive

Use the examples below as a reference point.
• CCOC(=O)C(=O)Nc1ccc2c(ccn2C(=O)c2cccc(F)c2)c1 = inactive
• NS(=O)(=O)c1ccc(Nc2nc(Nc3ccccc3)nc(N3N=C(c4ccc(Cl)cc4)CC3c3ccc(Cl)cc3)n2)cc1 (stereo not drawn) = inactive
• CCCCCCN1C=C/C(=C\C(=O)n2ccc3ccccc32)c2ccccc21 = inactive
• CCCCCCCCCCCC(=O)NC(C)(C)C(=O)N1CCCC1C(=O)NC(C)(C)C(=O)NC(C)(C)C(=O)N1CCCC1C(=O)NC(C)(C)C(=O)NC(C)(C)C(=O)N1CCCC1C(=O)NC(C)C(=O)NCCC(=O)NC(C)C(=O)NC(C)(C)C(=O)NC(C)(C)C(=O)NC(C)(C)C(=O)NCCC(=O)NC(C)(C)C(=O)NC(C)(C)C(=O)NC(C)(C)C(=O)NC(C)C(=O)NCCC(=O)O (stereo not drawn) = active

Prompt line: Query: recorded result category for `COc1cc(OC)cc(-c2cc(-c3c[nH]c4ccccc34)nc(-c3c[nH]c4ccccc34)c2C#N)c1` in this test
Response line: inactive

Prompt line: Query: recorded result category for `Cn1cc(-c2cc3ncnc(Nc4ccc(CC(=O)Nc5nc(C(C)(C)C)cs5)cc4)c3s2)cn1` in this test
Response line: inactive

Data origin, for the record: PubChem BioAssay (NCI)
